Experiment: Pharmacokinetic study of Compound 20 in ICR mice
Assay type: in vivo
Conditions: male, mouse, po, 100 mg/kg p.o., plasma, mean
Method: 60 male ICR mice were split into two groups of 30. In each group the mice were prescribed Compound 20 at a dosage of 100 mg/kg. This dose was administered orally in group 1 and intraperitoneally in group 2. Each group of 30 mice was subdivided into groups of 3 mice. […] Plasma and Brain samples were centrifuged at 15777×g for 5 minutes, and 180 ul of supernatant was placed in a 96-well assay plate. […] 5 ul aliquots of each well were then analyzed using LC-MS/MS. […]
REPORTED_PROPERTY: Tmax
The reply should consist of the numeric value with the unit placed after it.

The compound listed as COc1cc(N(c2ccccc2)c2ccccc2)ccc1/C=C(\C#N)C(=O)O has a reported Tmax of 40 min
